Origin of measurements: ChEMBL document CHEMBL4507327

OUTCOME_MEASURE: IC50 (nM)
Your answer is read as nM, so omit the unit and give the number.

## Input Under Serine/threonine-protein kinase SIK1 (Homo sapiens, UniProt P57059): IC50 value of `CN1C(=O)[C@@H](N2CCc3cn(Cc4ccccc4)nc3C2=O)COc2ccccc21` ?
## Output 1000

###

OUTCOME_MEASURE: IC50 (nM)
Your answer is read as nM, so omit the unit and give the number.

## Input Under Receptor-interacting serine/threonine-protein kinase 2 (Homo sapiens, UniProt O43353): IC50 value of CN1C(=O)[C@@H](N2CCc3cn(CC4CCS(=O)(=O)CC4)nc3C2=O)COc2ccccc21 [TP-030n] ?
## Output 1000

## Input Under Receptor-interacting serine/threonine-protein kinase 2 (Homo sapiens, UniProt O43353): IC50 value of `CN1C(=O)[C@@H](N2CCc3cn(Cc4ccccc4)nc3C2=O)COc2ccccc21` ?
## Output 1000
